experiment: NCI Yeast Anticancer Drug Screen. Data for the rad50 strain (AID 155);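 note: 0% = growth of vehicle-only cultures of the same strain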; conditions: S. cerevisiae rad50 strain growth inhibition; at 50.0 µM (retest, dose inferred, filed as 5.0); stronger effect = higher value
This is part of a sample that, as a whole, favours compounds with a hit. Of some 79,000 tested, about 15% had one in any assay.
Observation type: growth inhibition (%)
Field format: number, assumed %, no unit text.

Check out these entries, answers already filled in.
// recorded growth inhibition for "CC(=O)NC(c1nc2cc(C)c(C)cc2[nH]1)c1nc2cc(C)c(C)cc2[nH]1" : 94

Summary for this compound, "CCCCCCCCCCCNC=O" : growth inhibition is 96

Recorded result, "c1ccc([P+](CCN2Cc3ccccc3C2)(c2ccccc2)c2ccccc2)cc1" , growth inhibition: 69

Value of measured growth inhibition for the entry "C1=CCN([B-](c2ccccc2)[C+]2CCCCC2)C=C1" : 86

// "CCCNC(=O)OCc1c(COC(=O)NCCC)c(-c2ccc(Cl)c(Cl)c2)n2c1CCC2" : growth inhibition value = 42

# compound "O=C(O)c1c2ccc(Cl)cc2nc2[nH]c(=O)[nH]c(=O)c12" ; its growth inhibition = 45

Next, consider the following compound.
For "O=C1c2ccccc2-c2cc3ccccc3c(=O)n21" the compound record lists growth inhibition as 92

* * *

test: NCI Yeast Anticancer Drug Screen. Data for the mgt1 strain (AID 153); conditions: S. cerevisiae mgt1 mutant growth inhibition; at 11.0 µM; stronger effect = higher value
This is part of a sample that, as a whole, favours compounds with a hit. Of some 79,000 tested, about 15% had one in any assay.
Observation type: growth inhibition (%)
Give the value in % but do not write % after it.

Guide cases for growth inhibition, answers given:
Sample "CCN(CC)CCC(=O)Nc1ccc2sc3ccccc3c(=O)c2n1" ; growth inhibition observed: 5

For "CCCCCCCCNCCCCCCCC" the compound record lists growth inhibition as 97

In plain terms, "O=C(NCCCCN(CCCNC(=O)C(F)(F)F)Cc1ccccc1)C(F)(F)F" has a documented growth inhibition of 32

Field growth inhibition (entry "COc1c2c(c3c(c1CCC(=O)O)OC(C)(C)C=C3)OC(C)(C)C=C2" ) reads 15

Value of measured growth inhibition for the entry O=S(=O)(NC1CCCC(c2ccccc2)C1)c1ccccc1 (centres undefined) : -1

Reported growth inhibition ( "O=C1c2ccccc2C(=O)c2sc(Nc3ccccc3Cl)nc21" ) = 96

Sure, the documented growth inhibition for "CSC(=S)N/N=C/c1ccccc1" is 22

Field growth inhibition (entry "C/C(=N\Sc1ccccc1)c1ccccc1O" ) reads -1

Next:
Noted for c1ccc2c(c1)N=C1CCCC3CCCC123 (centres undefined) : its growth inhibition reads 6

* * *

Assay: NCI Yeast Anticancer Drug Screen. Data for the bub3 strain (AID 167)
Settings: S. cerevisiae bub3 mutant strain, at 11.0 µM, stronger effect = higher value
Protocol: Growth inhibition of yeast strains with defined genetic alterations is measured as a screen for potential anti-cancer activity. Selected strains with alterations in DNA damage repair or cell cycle control were exposed to compounds and growth inhibition was measured relative to vehicle treated controls. The strain used in this assay is bub3
Compounds without any hit were thinned out: in the full panel of roughly 79,000, 15% have a hit.
Observation type: growth inhibition (%)
Answer in %, number only, no unit symbol.

Observe how each entry below is paired with its result.
Data point: "C=COC(=O)N[C@H]1CCc2cc(OC)c(OC)c(OC)c2-c2ccc(SC)c(=O)cc21" ; growth inhibition = -6

Value of measured growth inhibition for the entry CCC1(O)C(=O)OCc2c1cc1n(c2=O)Cc2cc3c(N)cccc3nc2-1 (stereo unspecified) : -34

// growth inhibition value for "O=P(C(=S)Nc1c(Cl)cccc1Cl)(c1ccccc1)c1ccccc1" : 14

The compound "CN(C)CC(CN(C)C)C(=O)/C=C/c1ccc(Cl)cc1Cl" showed growth inhibition equal to -3

compound "CCCCCCCCCCCNC=O" , growth inhibition observed: -12

***
Field growth inhibition (entry NC(=S)N/N=C1\c2ccccc2CCC1CCC1(O)CCc2ccccc2C1=O (stereo unspecified) ) reads 34

Item: "CCC(/C=C/c1ccccc1)=N\Nc1ccc(Cl)cc1" | growth inhibition: 5

According to the records, this compound "c1ccc2nc3c(nc2c1)sc1ccccc13" displays growth inhibition of 41

Record summary for OC(CC(O)(C(F)(F)F)C(F)(F)F)c1ccc(C(O)CC(O)(C(F)(F)F)C(F)(F)F)cc1 (stereo unspecified) : reported growth inhibition = 95

Lab note: "O=[N+]([O-])c1ccc2nc(=S)[nH]n2c1" gave growth inhibition of -5

// "CNC(=S)N/N=C(/C)CCC/C(C)=N/NC(=S)NC" : growth inhibition value = 65

For this compound ( "CCC[CH2][Sn]([CH2]CCC)([CH2]CCC)/[C](=C/[Si](C)(C)c1ccccc1)c1ccc2c(c1)OCO2" ), measured growth inhibition is 93

"CCCCCCC=C(C(=O)OCC)C(=O)OCC" yielded growth inhibition of -1
